Experiment: yeast display, Sf9 membrane polyspecificity reagent, FACS + sequencing; frameworks hold sequencing errors

constructSequence	polyreactivity (PSR sort gate)
QVQLVESGGGLVQAGGSLRLSCAASGLTFTYYALGWYRQAPGKERELVAAISSSGSDTYYADSVKGRFTISRDNAKNTVYLQMNSLKPEDTAVYYCAAVLTGLSPDFEYEYWGQGTQVTVSS	low polyreactivity
QVQLVESGGGLVQAGGSLRLSCAASGITFGGNAMGWYRQAPGKERELVAAISRRGGSTYYADSVKGRFTISRDNAKNTVYLQMNSLKPEDTAVYYCAAYDPVNSPGYDYWGQGTQVTVSS	high polyreactivity
QVHLLESGGGLDHAGGSLRLSCAASGRIFRYYFMGWYRQAPGKERELVAAISRGGRTYYADSVKGRFTISRDNAKNTVYLQMNSLKPEDTAVYYCDAVITQTDTGYGPSFRVYYWGQGTKVTVSS	high polyreactivity
QVQLVESGGGLVQAGASLRLSCAASGRTFWYNAMGGYRQAPGKERELVAAISSTGGRTYYADSVKGRFTISRDNAKNTVYLQMNSLKPEDTAVYYCAARQLSSHYDYWGQGTQVTVSS	low polyreactivity
QVKLVESGGGLVQAGGSLRLSCAASGFTYFINGMGWYRQAPGKERQLVAAIRSSGASTYYADSVKGRFTISRDNAKNTVYLQMNSLKPEDTAVYYCNARSSVCNSGADYDYWGQGTQVTVSS	low polyreactivity

* * *

Assay: yeast display, Sf9 membrane polyspecificity reagent, FACS + sequencing; frameworks hold sequencing errors

constructSequence	polyreactivity (PSR sort gate)
QVQLVESGGGLVQAGGSLRLSCAASGRPFRGYAMGWYRQAPGKDRELVAAITRSGGSTYYADSVKGRFTISRDNAKNTVYVQMTSLKPEDTAVSYCNAVRHAQSRWPYGYWGQGTQVTVSS	high polyreactivity
QVQLVESGGGLVQAGGSLRLSCAASGRIIVKYAMRSYRQAPGKERELVAAITNSGGRTYYAACVKGRFTISRDNAKNTVYFQMNSLKPEDTAVYYCAALFHASTRQMDYWGQGTQVTVSS	high polyreactivity
QVHRGETGGGLVQAGGSLRLSCSASGLSFPHYAMGWYRQAPGKERDLVADINLSGGSNTYYADSVKGRFTISRDNAKNTVYLMMNSLKPEDTPVYDCNAVSWENWYHIMDYWGQGTQVTVSS	high polyreactivity
QVQLVESGGGSVQAGGSLRLSCAASGYIFGVYAMGWYRQAPGKERELVAAISSGGSTNYADSVKGRFTISRDNAKNTVYLQMNSLKPEDTAVYYCNADYIFYYEYDYWGQGTQVTVSS	low polyreactivity
QVQLVESGGGLVQAGGSLRLSCAASGIILYYNALGWYRQAPGKERELLAAITTSGVSTYDADSVKGRFTISRDNAKNTVYLQMKSLKPEDTAVYYCNARARARYFYEMDYWGQGTQVTVSS	low polyreactivity
QVQLVESGGGLVQAGGSLRLSCAASGSTFNQYDMGWYRQAPGKERELVAAITWSGTSTYYADSVKGRFTISRDNAKNTVYLQMNSLTPEDTAVYYCAADDPFHSSCWTYRYGYWGQGTQVTVSS	low polyreactivity
QVQLVESGGGLVQAGGSLRLSCAASGGIFAANAMGWYRPAPGKERELVAAISRSGGRTYYADSVKGRFTISRDNAKNTVYLQMNSLKPEDTAVYYCAATYQASNAWYDYWGQGTQVTVSS	high polyreactivity
QVQLVESGGGLVQAGGSLRLSCAASGRIFARNAMGWYRQAPGKERELVATIRVGGGSTYYADSVKGRFTISRDNAKNTVYLQMNSLKPEDTAVYYCAVRQLYSYPGDRRGYYWGQGTQVTVSS	low polyreactivity
QVQLVESGGGLVQAGGSLRLSCAASGRTSGFNTMGWYRQAPGKERELVAAISFSGGSTYYADSVKGRFTISRDNAKNTVYLQMNSLKPEDTAVYYCNALYRYLYRSGDYWGQGTQVTVSS	low polyreactivity
QVQLVESGGGLVQGGGSLRLSCAASGRIFTFYAMGWSRPAPGKARELVASITGGGNTYYADSVKGRFTISRDNAKNTVNLQMNSLKPEDTAVYYCAADDGYRELDYWGQGTQVTVSS	low polyreactivity
QVQLQESGGSLVQAGGSLRLSCAASGNILVLPHGLVSPGAERELVATITGGSITYYADSVKGRFTISRDNAKNTVYLQMNSLKPGDTAVYYCAVINIYHRPHPYWGQGTLVTVSS	high polyreactivity
